What IC50 was measured for each of the following?
- system.name: PI3Kδ (Homo sapiens, UniProt O00329)
- Construct: The protein is full length and co-expressed with untagged PIK3R1; GST; purchased Invitrogen PV5274
- Sequence (O00329 whole entry): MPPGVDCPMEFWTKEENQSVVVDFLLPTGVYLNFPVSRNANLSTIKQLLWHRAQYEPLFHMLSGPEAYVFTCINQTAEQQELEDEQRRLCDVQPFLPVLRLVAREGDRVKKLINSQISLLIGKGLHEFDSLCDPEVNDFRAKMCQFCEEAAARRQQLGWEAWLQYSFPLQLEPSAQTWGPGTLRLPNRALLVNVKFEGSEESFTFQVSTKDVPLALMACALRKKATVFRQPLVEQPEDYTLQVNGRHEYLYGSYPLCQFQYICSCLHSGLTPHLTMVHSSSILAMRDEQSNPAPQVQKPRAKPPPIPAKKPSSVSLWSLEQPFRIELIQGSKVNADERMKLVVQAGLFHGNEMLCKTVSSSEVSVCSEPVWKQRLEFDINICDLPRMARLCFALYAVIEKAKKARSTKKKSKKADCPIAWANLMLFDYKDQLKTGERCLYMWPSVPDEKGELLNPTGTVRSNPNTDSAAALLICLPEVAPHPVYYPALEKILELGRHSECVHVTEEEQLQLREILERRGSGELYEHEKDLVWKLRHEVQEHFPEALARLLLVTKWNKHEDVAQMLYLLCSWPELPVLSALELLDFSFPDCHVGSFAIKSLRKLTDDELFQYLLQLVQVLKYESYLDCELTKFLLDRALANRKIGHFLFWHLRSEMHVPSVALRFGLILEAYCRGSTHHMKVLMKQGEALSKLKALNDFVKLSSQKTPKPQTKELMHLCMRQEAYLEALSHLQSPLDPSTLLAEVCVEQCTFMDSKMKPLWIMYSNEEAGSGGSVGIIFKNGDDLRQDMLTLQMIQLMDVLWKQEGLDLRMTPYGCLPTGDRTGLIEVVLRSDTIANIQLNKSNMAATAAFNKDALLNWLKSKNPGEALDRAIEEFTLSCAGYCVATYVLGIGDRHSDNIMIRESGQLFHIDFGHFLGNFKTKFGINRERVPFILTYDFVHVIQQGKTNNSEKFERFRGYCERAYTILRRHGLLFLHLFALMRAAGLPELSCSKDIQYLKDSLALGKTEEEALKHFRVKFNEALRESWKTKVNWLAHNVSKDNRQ
- Sequence (P27986 whole entry partner): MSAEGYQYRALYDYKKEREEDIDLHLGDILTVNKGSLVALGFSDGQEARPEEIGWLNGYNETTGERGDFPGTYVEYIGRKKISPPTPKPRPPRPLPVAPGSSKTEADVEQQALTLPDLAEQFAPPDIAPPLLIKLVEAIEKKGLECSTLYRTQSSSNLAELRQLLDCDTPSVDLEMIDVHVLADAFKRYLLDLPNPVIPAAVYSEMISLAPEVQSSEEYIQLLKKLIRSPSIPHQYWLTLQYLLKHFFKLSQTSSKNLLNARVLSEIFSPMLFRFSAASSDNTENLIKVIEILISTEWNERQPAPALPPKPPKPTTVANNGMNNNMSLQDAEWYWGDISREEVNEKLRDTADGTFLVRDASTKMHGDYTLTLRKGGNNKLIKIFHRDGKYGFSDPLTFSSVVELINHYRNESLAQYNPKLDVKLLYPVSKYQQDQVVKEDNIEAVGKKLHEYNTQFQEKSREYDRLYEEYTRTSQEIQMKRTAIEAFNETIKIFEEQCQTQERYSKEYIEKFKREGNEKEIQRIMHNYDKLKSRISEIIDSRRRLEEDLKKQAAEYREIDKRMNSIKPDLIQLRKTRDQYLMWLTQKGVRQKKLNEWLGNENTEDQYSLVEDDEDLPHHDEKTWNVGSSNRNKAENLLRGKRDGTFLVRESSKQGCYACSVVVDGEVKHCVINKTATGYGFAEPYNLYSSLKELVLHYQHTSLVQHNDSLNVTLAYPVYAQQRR
- test.protocol: PI3Kδ inhibition, modified PIK3CD Adapta TR-FRET assay
- Type: biochemical
- experimental.conditions: recombinant GST-tagged full length PIK3CD co-expressed with PIK3R1 (p85α); 2 μM ATP, 50 μM PIP2; read-out: PI3Kδ Inhibition (pIC50) (converted)
Give just the number in nM; leave the unit off.

### Prompt For the record CS(=O)(=O)c1ccc(CN2C(=O)C3COCCN3c3nc(-c4ccc5[nH]ccc5c4)ncc32)cc1 (centres unmarked) [Example 127] , what value of IC50 is listed for PI3Kδ (Homo sapiens, UniProt O00329)?
### Response 126

### Prompt // lookup IC50 | system=PI3Kδ (Homo sapiens, UniProt O00329) | key= CCc1nnc(CN2C[C@@H]3COCCN3c3nc(-c4cccc(CO)c4)ncc32)o1 [Example 172]
### Response 5.01

### Prompt Lookup: IC50 / PI3Kδ (Homo sapiens, UniProt O00329) / COc1cc(-c2ncc3c(n2)N2CCOCC2C(=O)N3Cc2ccc(S(C)(=O)=O)cc2)ccn1 (centres unmarked) [Example 140]
### Response 631

### Prompt Provide value of IC50 for this record tested with PI3Kδ (Homo sapiens, UniProt O00329): c1ccc(OCCN2CC3COCCN3c3nc(-c4cccc5[nH]ccc45)ncc32)cc1 (centres unmarked) [Example 32]
### Response 79.4

### Prompt For PI3Kδ (Homo sapiens, UniProt O00329), provide IC50 of Oc1cc2c(-c3ncc4c(n3)N3CCOCC3CN4)cccc2[nH]1 (centres unmarked) [Example 12] please.
### Response 7940

### Prompt Please provide the recorded IC50 for CC(C)NC(=O)CN1CC2COCCN2c2nc(-c3cccc4[nH]ccc34)ncc21 (centres unmarked) [Example 42] , tested on PI3Kδ (Homo sapiens, UniProt O00329).
### Response 501

### Prompt Query IC50 on PI3Kδ (Homo sapiens, UniProt O00329) for CNC(=O)Nc1ccc(-c2ncc3c(n2)N2CCOCC2C(=O)N3[C@H](C)c2ccc(Cl)cc2)cc1 (some centres unmarked) [Example 84]
### Response 126

### Prompt Look up IC50 with PI3Kδ (Homo sapiens, UniProt O00329) for this compound: CS(=O)(=O)c1ccc(CN2C(=O)C3COCCN3c3nc(-c4cccc(S(=O)(=O)NC5CC5)c4)ncc32)cc1 (centres unmarked) [Example 116]
### Response 1580

### Prompt Short answer please: IC50, PI3Kδ (Homo sapiens, UniProt O00329), entry CNC(=O)Nc1ccc(-c2ncc3c(n2)N2CCOCC2C(=O)N3Cc2ccc(C(=O)OC)cc2)cc1 (centres unmarked) [Example 88]
### Response 6.31

### Prompt API: value(readout= IC50, system= PI3Kδ (Homo sapiens, UniProt O00329), query= c1ccc(-c2nnc(CN3CC4COCCN4c4nc(-c5cccc6[nH]ccc56)ncc43)o2)cc1 (centres unmarked) [Example 38] )
### Response 12.6

### Prompt Give PI3Kδ (Homo sapiens, UniProt O00329) IC50 for O=C(O)CN1C[C@@H]2COCCN2c2nc(-c3cccc4[nH]ccc34)ncc21 [Example 69]
### Response 2510

###

I'd appreciate it if you could supply IC50 values for the items below.
- system.name: PI3Kδ (Homo sapiens)
- Construct: The protein is full length and co-expressed with untagged PIK3R1; GST; purchased Invitrogen PV5274
- test.protocol: PI3Kδ inhibition, modified PIK3CD Adapta TR-FRET assay
- Assay type: biochemical
- experimental.conditions: recombinant GST-tagged full length PIK3CD co-expressed with PIK3R1 (p85α); 2 μM ATP, 50 μM PIP2; read-out: PI3Kδ Inhibition (pIC50) (converted)

### Prompt Value lookup for IC50; key = CS(=O)(=O)c1ccc(CN2C(=O)C3COCCN3c3nc(-c4c[nH]c5c(Cl)cccc45)ncc32)cc1 (stereo not drawn)
### Response > 0.1 µM

### Prompt Which IC50 is listed for CS(=O)(=O)c1ccc(CN2C(=O)C3COCCN3c3nc(-c4cc(N)ccn4)ncc32)cc1 (stereo not drawn) ?
### Response > 10 µM

### Prompt Look up IC50: COc1cccc2c(-c3ncc4c(n3)N3CCOCC3CN4)c[nH]c12 (stereo not drawn)
### Response > 10 µM
